Measured values drawn from patent US8552176B2 for this set.

System: SKOV3
Test: cells
Assay type: cell-based, human
Settings: read-out: GI50 SKOV3 ovary
# GI50 per record follows
measurement.type: GI50 (µM)

INSERT INTO results (compound, assay_system, measurement_type, sign, observed_value) VALUES
  ('CON(CCCCc1ccc(N(CCCl)CCCl)cc1)C1OC(C)C(OCc2ccccc2)C(OCc2ccccc2)C1OCc1ccccc1 (mixture of isomers) [Compound 22]', 'SKOV3', 'GI50', '=', 7.2),
  ('CON(CCCCc1ccc(N(CCCl)CCCl)cc1)C1OCC(O)C(O)C1O (stereo not drawn) [Compound 63]', 'SKOV3', 'GI50', '=', 2.4),
  ('CON(CCCCc1ccc(N(CCCl)CCCl)cc1)C1OCC(O)C1O (stereo not drawn) [Compound 19]', 'SKOV3', 'GI50', '=', 2.6),
  ('CON(CCCCc1ccc(N(CCCl)CCCl)cc1)C1OC(C)C(O)C(O)C1O (mixture of isomers) [Compound 51]', 'SKOV3', 'GI50', '=', 2),
  ('CON(CCCCc1ccc(N(CCCl)CCCl)cc1)[C@@H]1O[C@@H](CO)[C@@H](O)[C@@H](O)[C@H]1O [Compound 59]', 'SKOV3', 'GI50', '=', 2),
  ('CON(CCCCc1ccc(N(CCCl)CCCl)cc1)C1OC(CO)C(O)C(O)C1O (mixture of isomers) [Compound 24]', 'SKOV3', 'GI50', '=', 4.1),
  ('CON(CCCCc1ccc(N(CCCl)CCCl)cc1)[C@H]1O[C@H](CO)[C@H](O)[C@H](O)[C@@H]1O [Compound 58]', 'SKOV3', 'GI50', '=', 2),
  ('CON(CCCCc1ccc(N(CCCl)CCCl)cc1)C1OC(COCc2ccccc2)C(OCc2ccccc2)C1OCc1ccccc1 (stereo not drawn) [Compound 57]', 'SKOV3', 'GI50', '>', 100),
  ('CON(CCCCc1ccc(N(CCCl)CCCl)cc1)C1OC(C)C(O)C(O)C1O (mixture of isomers) [Compound 21]', 'SKOV3', 'GI50', '=', 1.8),
  ('CON(CCCCc1ccc(N(CCCl)CCCl)cc1)C1OC(CN)C(O)C(O)C1O (mixture of isomers) [Compound 34]', 'SKOV3', 'GI50', '=', 2.2),
  ('CON(CCCCc1ccc(N(CCCl)CCCl)cc1)C1OC(CO)C(O)C(O)C1O (stereo not drawn) [Compound 28]', 'SKOV3', 'GI50', '=', 3),
  ('CON(CCCCc1ccc(N(CCCl)CCCl)cc1)C1OC(CO)C(O)C(O)C1O (mixture of isomers) [Compound 40]', 'SKOV3', 'GI50', '=', 2.5),
  ('CON(CCCCc1ccc(N(CCCl)CCCl)cc1)C1OC(CCl)C(O)C(O)C1O (stereo not drawn) [Compound 36]', 'SKOV3', 'GI50', '=', 2.1),
  ('COC1C(O)C(CO)OC(N(CCCCc2ccc(N(CCCl)CCCl)cc2)OC)C1O (stereo not drawn) [Compound 33]', 'SKOV3', 'GI50', '=', 2.4),
  ('O=C1O[C@@H]2[C@@H](O)[C@H](N(O)CCCCc3ccc(N(CCCl)CCCl)cc3)O[C@@H]2[C@@H]1O [Compound 67]', 'SKOV3', 'GI50', '=', 10.1);
